Data provenance is ChEMBL document CHEMBL4145504.

Test: Cytotoxicity against human MCF7/ADR cells assessed as cell survival at 10 uM after 48 hrs by MTT assay relative to control
Assay type: cell-based
Settings: MCF7/ADR cells (NCI/ADR-RES), read-out: Survival
measured-attribute: viability at 48 h, 10 µM

>>> result("CC(=O)O[C@H]1[C@@H](OC(C)=O)C(C)(C)/C=C/[C@H](C)[C@H](OC(C)=O)[C@@]2(O)C[C@@](C)(OC(C)=O)[C@H](O)[C@@H]2[C@H]2OC(=O)CC[C@@]2(OC(=O)c2ccccc2)[C@@H]1OC(=O)C(C)C")
"> 100%"
>>> result("C=C1[C@H](OC(=O)C(C)C)[C@@H](OC(C)=O)[C@@H](OC(C)=O)C(C)(C)/C=C/[C@H](C)[C@H](OC(C)=O)[C@@]2(O)C[C@@](C)(OC(C)=O)[C@H](OC(C)=O)[C@@H]2[C@H]1OC(=O)c1ccccc1")
"> 100%"

----------
Species on record: Homo sapiens
Test: Inhibition of P-gp in human MCF7/ADR cells assessed as potentiation of doxorubicin-induced cytotoxicity at 10 uM after 48 hrs by MTT assay relative to control
Format: cell-based
measured-attribute: fold change (FC)

>>> recorded_number("CC(=O)O[C@H]1[C@@H](OC(C)=O)C(C)(C)[C@@H]2O[C@H]2[C@H](C)[C@H](OC(C)=O)[C@]2(O)[C@H]3[C@@H](OC(=O)c4ccccc4)[C@@](O)(CCC(=O)O[C@H]3[C@](C)(OC(C)=O)[C@H]2OC(C)=O)[C@@H]1OC(C)=O")
0.69
>>> recorded_number("C=C1[C@@H](OC(C)=O)[C@@H]2[C@H](OC(=O)c3ccccc3)[C@](C)(OC(=O)C(C)C)C[C@]2(OC(C)=O)C(=O)[C@H](C)/C=C/C(C)(C)[C@H](OC(C)=O)[C@H](OC(C)=O)[C@H]1OC(=O)C(C)C")
11.2
>>> recorded_number("C=C1[C@H](OC(=O)C(C)C)[C@@H](OC(C)=O)[C@@H](OC(C)=O)C(C)(C)/C=C/[C@H](C)[C@H](OC(=O)c2ccccc2)[C@@]2(O)C[C@@](C)(OC(C)=O)[C@H](OC(C)=O)[C@@H]2[C@H]1OC(=O)c1ccccc1")
20.9
>>> recorded_number("C=C1[C@H](OC(=O)C(C)C)[C@@H](OC(C)=O)[C@@H](OC(C)=O)C(C)(C)/C=C/[C@H](C)[C@H](OC(=O)c2ccccc2)[C@@]2(O)C[C@@](C)(OC(C)=O)[C@H](OC(C)=O)[C@@H]2[C@H]1OC(=O)CC")
12.5
>>> recorded_number("CC(=O)O[C@H]1[C@@H](OC(C)=O)C(C)(C)/C=C/[C@H](C)[C@@H](OC(C)=O)[C@@]2(O)C[C@@](C)(OC(C)=O)[C@@H]3OC(=O)CC[C@@](O)([C@@H]1OC(=O)C(C)C)[C@H](OC(=O)c1ccccc1)[C@@H]32")
17.1
>>> recorded_number("C=C1[C@H](OC(=O)C(C)C)[C@@H](OC(C)=O)[C@@H](OC(C)=O)C(C)(C)/C=C/[C@H](C)[C@H](OC(C)=O)[C@@]2(O)C[C@@](C)(OC(C)=O)[C@H](OC(C)=O)[C@@H]2[C@H]1OC(=O)c1ccccc1")
10.2
>>> recorded_number("CC(=O)O[C@H]1[C@@H](OC(C)=O)C(C)(C)/C=C/[C@H](C)[C@H](OC(C)=O)[C@@]2(O)C[C@@](C)(OC(C)=O)[C@H](O)[C@@H]2[C@H]2OC(=O)CC[C@@]2(OC(=O)c2ccccc2)[C@@H]1OC(=O)C(C)C")
13
>>> recorded_number("C=C1CCC(=O)C(C)(C)/C=C/[C@H](C)C(=O)[C@@]2(OC(C)=O)C[C@H](C)[C@H](O)[C@@H]2[C@H]1OC(=O)c1ccccc1")
3.52
>>> recorded_number("C=C1[C@H](OC(=O)CC)[C@@H](OC(C)=O)[C@@H](OC(C)=O)C(C)(C)/C=C/[C@H](C)[C@H](OC(=O)c2ccccc2)[C@@]2(O)C[C@@](C)(OC(C)=O)[C@H](OC(C)=O)[C@@H]2[C@H]1OC(=O)C(C)C")
13.5
>>> recorded_number("C=C1[C@H](OC(=O)C(C)C)[C@@H](OC(C)=O)[C@@H](OC(C)=O)C(C)(C)/C=C/[C@H](C)[C@H](OC(=O)c2ccccc2)[C@@]2(O)C[C@@](C)(OC(C)=O)[C@H](OC(C)=O)[C@@H]2[C@H]1OC(=O)C(C)C")
10
>>> recorded_number("C=C1[C@H](OC(=O)C(C)C)[C@@H](OC(C)=O)[C@@H](OC(C)=O)C(C)(C)/C=C/[C@H](C)[C@H](OC(=O)c2ccccc2)[C@@]2(O)C[C@@](C)(OC(C)=O)[C@H](OC(C)=O)[C@@H]2[C@H]1OC(=O)C(C)CC (some centres not stated)")
36.8
>>> recorded_number("C=C1[C@H](OC(=O)C(C)C)[C@@H](OC(C)=O)[C@@H](OC(C)=O)C(C)(C)/C=C/[C@H](C)C(=O)[C@@]2(O)C[C@@](C)(OC(C)=O)[C@H](OC(C)=O)[C@@H]2[C@H]1OC(=O)c1ccccc1")
9.29
